study target: T1, human CD70 (human, UniProt P32970 1-193)
T1 construct: also called hu CD70; CD27L
T1 sequence: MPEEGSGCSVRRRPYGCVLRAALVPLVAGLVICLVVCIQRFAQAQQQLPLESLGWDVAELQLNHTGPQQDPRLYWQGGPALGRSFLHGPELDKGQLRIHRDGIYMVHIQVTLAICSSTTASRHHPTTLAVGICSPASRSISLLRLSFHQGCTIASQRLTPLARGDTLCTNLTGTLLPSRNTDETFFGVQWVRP
test description: FACS on CHO cells, periplasmic scFv
assay endpoint: binding result

binder: CD70-62 (scFv, As m32) scFv: EVQLVESGGGLVKPGGSLRLSCAASGFTFSSYSMNWVRQAPGKGLEWVSYISSSGGYIYYADSVKGRFTISRDNAKNSLYLQMNSLRAEDAAVYYCSRGDYSNYAYFDYWGQGTLVTVSSGGGGSGGGGSGGGGSDIQMTQSPSSLSASVGDRVTITCRASQGISNYLAWYQQKPGKVPKLLIYAASTLQSGVPSRFSGSGSGTDFTLTISSLQAEDVAVYYCQQYYSTPLTFGGGTKVEIK
test result: binds
--
binder: CD70-42 (scFv, As m32) scFv: EVQLLESGGGLVQPGGSLRLSCAASGFTFSTYAMSWVRQAPGKGLEWVSLISGSGGRTYYADSVKGRFTISRDNSKNTLYLQMNSLRAEDTAVYYCAKHDYSNYPYFDYWGQGTLVTVSSGGGGSGGGGSGGGGSEIVLTQSPGTLSLSPGERATLSCRASQGVRSSYLAWYQQKPGQAPRLLIYGASSRATGIPDRFSGSGSGTDFTLTINRLEPEDFAVYYCQQYGSSPPTFGGGTKVDIK
test result: binds
